normalized growth for assorted compounds
# measurementNotes: chemical genetic growth profiling, strain panel (AID 1159580);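 further: tested at 20 µM; growth read once vehicle control cultures reached saturation at 30 °C; 1 = growth at the plate median or of vehicle wells; lower values mean less growth of the strain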
# setupConditions: S. cerevisiae deletion strains, growth OD, locus YLR058C, strain SHM2 (second series), stronger effect = lower value
Hit rate of the full screen: of about 5,500 compounds, about 2,000 (36%) were called active. About 18% were inconclusive and are not listed. The list shows a part of the results.
Give the value as a plain number.

Some compounds with known normalized growth results, for comparison:
Req: Quick one: normalized growth of COc1ccc(OC)c(S(=O)(=O)Nc2ccc(C#N)cc2)c1 ?
Resp: 1

Req: Quick one: normalized growth of CCC(=O)Nc1cc(F)ccc1C ?
Resp: 1

Req: Quick one: normalized growth of Cc1ccc(OS(=O)(=O)c2ccc(C#N)cc2)c(Br)c1 ?
Resp: 0.997

Next:
Req: Quick one: normalized growth of CN(C)c1ccc(C(=O)NN)cc1 ?
Resp: 1.02

Origin of values: PubChem BioAssay AID1159580
